System: P. aeruginosa 209 PAO1
Assay: Bacterial susceptibility testing, MIC by broth microdilution (CLSI)
Type: cell-based
Conditions: Pseudomonas aeruginosa, 35° C., 18-24 h, read-out: MIC (μg/mL) P. aeruginosa 209 PAO1
Assay Readout: MIC
Provide a numeric answer, followed by its unit.

Request: # return recorded MIC for input C[C@H](O)c1nccn1[C@@H](C#Cc1ccc(-c2ccc(C3CC(NC4C(O)OC(CO)C(O)C4O)C3)cc2)cc1)CO (stereo partly shown)
Response: 4 µg/mL

Request: # return recorded MIC for input C[C@@H](O)c1nccn1[C@H](C#Cc1ccc(-c2ccc(OCC(N)CO)cc2)cc1)CO (mixture of isomers)
Response: 1 µg/mL

Request: # return recorded MIC for input C[C@H](O)c1nccn1CC#Cc1ccc(-c2ccc(C3CC(NCC(=N)N)C3)cc2)cc1 (stereo partly shown)
Response: 2 µg/mL

Request: # return recorded MIC for input C[C@H](O)c1nccn1CC#Cc1ccc(-c2ccc(C3CN(C(=O)CO)C3)cc2)cc1
Response: 4 µg/mL

Request: # return recorded MIC for input C[C@H](O)c1nccn1[C@@H](C#Cc1ccc(-c2ccc(C3CC(NCC(F)F)C3)cc2)cc1)CO (stereo partly shown)
Response: 2 µg/mL

Request: # return recorded MIC for input C[C@H](O)c1nccn1[C@@H](C#Cc1ccc(-c2ccc(C3CC(NCc4ncon4)C3)cc2)cc1)CO (stereo partly shown)
Response: 2 µg/mL

Request: # return recorded MIC for input C[C@H](O)c1nccn1[C@@H](C#Cc1ccc(-c2ccc(C3CC(NCc4noc(C(N)=O)n4)C3)cc2)cc1)CO (stereo partly shown)
Response: 4 µg/mL

Request: # return recorded MIC for input C[C@H](O)c1nccn1[C@@H](C#Cc1ccc(-c2ccc(C3CC(NC(=O)CC#N)C3)cc2)cc1)CO (stereo partly shown)
Response: 4 µg/mL

Request: # return recorded MIC for input COC[C@@H](O)COc1ccc(-c2ccc(C#C[C@@H](CO)n3ccnc3[C@H](C)O)cc2)cc1
Response: 1 µg/mL

Request: # return recorded MIC for input C[C@H](O)c1nccn1[C@@H](C#Cc1ccc(-c2ccc(O[C@@H]3CN(CC#N)C[C@H]3O)cc2)cc1)CO
Response: 2 µg/mL

Request: # return recorded MIC for input C[C@H](O)c1nccn1[C@@H](C#Cc1ccc(-c2ccc(OCC3COCCO3)cc2)cc1)CO (mixture of isomers)
Response: 2 µg/mL

Request: # return recorded MIC for input C[C@H](O)c1nccn1[C@@H](C#Cc1ccc(-c2ccc(OC[C@@H](O)CO)cc2)cc1)CO
Response: 2 µg/mL

Request: # return recorded MIC for input C[C@H](O)c1nccn1[C@@H](C#Cc1ccc(-c2ccc(C3CC(NCC(F)(F)CO)C3)cc2)cc1)CO (stereo partly shown)
Response: 2 µg/mL

Attribution: patent US20240166609A1
